biological target: UniProt P11229; test: Positive allosteric modulation of human muscarinic acetylcholine M1 receptor expressed in CHO cells in presence of acetylcholine at EC20 concentration by calcium mobilization assay relative to acetylcholine; type: functional, cell-based; settings: filed as positive allosteric modulator, time 3.5 min
Sequence (P11229 whole entry): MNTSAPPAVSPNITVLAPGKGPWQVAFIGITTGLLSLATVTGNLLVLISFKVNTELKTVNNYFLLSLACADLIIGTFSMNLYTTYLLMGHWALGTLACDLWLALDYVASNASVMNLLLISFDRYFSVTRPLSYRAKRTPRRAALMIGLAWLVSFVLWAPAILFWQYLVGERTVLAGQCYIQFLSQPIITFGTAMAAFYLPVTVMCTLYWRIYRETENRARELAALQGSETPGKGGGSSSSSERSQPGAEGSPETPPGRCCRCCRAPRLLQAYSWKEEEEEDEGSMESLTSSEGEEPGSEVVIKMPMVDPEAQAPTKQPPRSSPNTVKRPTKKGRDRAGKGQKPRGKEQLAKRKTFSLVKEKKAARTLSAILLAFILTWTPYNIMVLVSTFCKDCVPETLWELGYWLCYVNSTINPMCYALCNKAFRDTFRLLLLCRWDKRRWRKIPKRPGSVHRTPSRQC
assay_readout: Emax (%)

Below are worked cases with known answers.
# compound, unit_abbreviation, Emax
records = [
    ("Cc1nn(C)cc1-c1cc(F)c(CN2Cc3cnn(CC4CCCO4)c3C2=O)c(F)c1 (stereo not given)", "%", 77),
    ("Cn1cc2cc(-c3ccc(CN4Cc5ncsc5C4=O)c(F)c3)ccc2n1", "%", 60),
    ("Cn1cc2c(-c3cc(F)c(CN4Cc5cnn(CCO)c5C4=O)c(F)c3)cccc2n1", "%", 84),
]

(a) Cn1cc2c(-c3cc(F)c(CN4Cc5ccn(CCN6CCCC6)c5C4=O)c(F)c3)cccc2n1
(b) Cn1cc2c(-c3cc(F)c(CN4Cc5cnn(CC6CCCO6)c5C4=O)c(F)c3)cccc2n1 (stereo not given)
# input Choose between a and b : whose measured Emax value is numerically larger? // return label of chosen record
# output b
(b: 85%, a: 56%)
